test system: G-361; test: Cytotoxicity against human G361 cells assessed as viable cells after 72 hrs by calcein AM assay; assay type: functional, cell-based; settings: G-361, 72 h
Response field label: string, one of T (IC50 strictly below 0.2 µM) or F.

COc1ccc(C(=O)OC[C@@H](C)[C@@]2(O)[C@@H](O[C@@H]3OC[C@H](O)[C@H](O[C@@H]4OC[C@@H](O)[C@H](O)[C@H]4OC(=O)c4ccc(OC)cc4)[C@H]3OC(C)=O)C[C@H]3[C@@H]4CC=C5C[C@@H](O)CC[C@]5(C)[C@H]4CC[C@@]32C)cc1 : T

Challenge: Just wondering, is IC50 of `CCCCCCCCC(=O)OC[C@@H](C)[C@@]1(O)[C@@H](O[C@@H]2OC[C@H](O)[C@H](O[C@@H]3OC[C@@H](O)[C@H](O)[C@H]3OC(=O)c3ccc(OC)cc3)[C@H]2OC(C)=O)C[C@H]2[C@@H]3CC=C4C[C@@H](O)CC[C@]4(C)[C@H]3CC[C@@]21C` below 0.2 µM?
Response given: T

Challenge: Just wondering, is IC50 of `CC(C)CCC(=O)[C@@H](C)[C@@]1(O)[C@@H](O)C[C@H]2[C@@H]3CC=C4C[C@@H](O)CC[C@]4(C)[C@H]3CC[C@@]21C` below 0.2 µM?
Response given: F

Challenge: Just wondering, is IC50 of `CCCCCCCCCCCCCC(=O)OC[C@@H](C)[C@@]1(O)[C@@H](O[C@@H]2OC[C@H](O)[C@H](O[C@@H]3OC[C@@H](O)[C@H](O)[C@H]3OC(=O)c3ccc(OC)cc3)[C@H]2OC(C)=O)C[C@H]2[C@@H]3CC=C4C[C@@H](O)CC[C@]4(C)[C@H]3CC[C@@]21C` below 0.2 µM?
Response given: T

Challenge: Just wondering, is IC50 of `CCCCCCCCCCCCCCCCCC(=O)OC[C@@H](C)[C@@]1(O)[C@@H](O[C@@H]2OC[C@H](O)[C@H](O[C@@H]3OC[C@@H](O)[C@H](O)[C@H]3OC(=O)c3ccc(OC)cc3)[C@H]2OC(C)=O)C[C@H]2[C@@H]3CC=C4C[C@@H](O)CC[C@]4(C)[C@H]3CC[C@@]21C` below 0.2 µM?
Response given: F

Challenge: Just wondering, is IC50 of `C/C=C/C(=O)OC[C@@H](C)[C@@]1(O)[C@@H](O[C@@H]2OC[C@H](O)[C@H](O[C@@H]3OC[C@@H](O)[C@H](O)[C@H]3OC(=O)c3ccc(OC)cc3)[C@H]2OC(C)=O)C[C@H]2[C@@H]3CC=C4C[C@@H](O)CC[C@]4(C)[C@H]3CC[C@@]21C` below 0.2 µM?
Response given: F

Challenge: Just wondering, is IC50 of `COc1ccc(C(=O)O[C@H]2[C@H](O[C@@H]3[C@@H](OC(C)=O)[C@H](O[C@H]4C[C@H]5[C@@H]6CC=C7C[C@@H](O)CC[C@]7(C)[C@H]6CC[C@]5(C)[C@@]4(O)[C@H](C)COCc4ccccc4)OC[C@@H]3O)OC[C@@H](O)[C@@H]2O)cc1` below 0.2 µM?
Response given: F
